- measurement target: BtKY72 RBD
- assay info: ELISA
measured metric: EC50

Req: For the binder shown here, M8a-25 (antibody, V domains shown) VH: EVQLQQSVAELVRPGASVKLSCTASGFNIKNTYMHWVKQRPEQGLEWIGRIDPSIDHTRYAPKFQGKAVITAFTSSNTAYLQLSSLTSEDTAIYYCAREGGGNYPYYYAIDYWGQGTSVTVSS VL: DIQMTQSSSSFSVSLGDRVTITCKASEDIYIRLAWYQQRPGNAPRLLISNAISLETGVPSRFSGSGFGKDHTLSITSLQTEDVATYYCQQYWSTPWTFGGGTKLEIK , give the reported EC50.
Resp: > 10 µg/mL
